assay: MB-102 pig plasma concentration after subcutaneous dosing; type: in vivo; conditions: Yorkshire, pig, plasma, subcutaneous, 3.2 mg/kg, pig 09802, SubQ, 3.2 mpk, 30 min; read-out: MB-102 Pig Plasma Conc.
Endpoint name: concentration at 30 min (ng/mL)
Your answer is read as ng/mL, so omit the unit and give the number.

Read off the recorded concentration at 30 min for Nc1nc(C(=O)N[C@H](CO)C(=O)O)c(N)nc1C(=O)N[C@H](CO)C(=O)O [MB-102] 7530

----------
test: MB-102 pig plasma concentration after IV dosing; type: in vivo; settings: Yorkshire, plasma, 3.2 mg/kg; pig 48019, IV, 3.2 mpk, 315 min; read-out: MB-102 Pig Plasma Conc.
Endpoint name: concentration at 315 min (ng/mL)
Your answer is read as ng/mL, so omit the unit and give the number.

Read off the recorded concentration at 315 min for `Nc1nc(C(=O)N[C@H](CO)C(=O)O)c(N)nc1C(=O)N[C@H](CO)C(=O)O` 1000

----------
experiment: MB-102 pig plasma concentration after subcutaneous dosing; type: in vivo; conditions: Yorkshire, pig, plasma, subcutaneous, 3.2 mg/kg, pig 09802, SubQ, 3.2 mpk, 195 min; read-out: MB-102 Pig Plasma Conc.
Endpoint name: concentration at 195 min (ng/mL)
Your answer is read as ng/mL, so omit the unit and give the number.

Read off the recorded concentration at 195 min for Nc1nc(C(=O)N[C@H](CO)C(=O)O)c(N)nc1C(=O)N[C@H](CO)C(=O)O [MB-102] 2720

----------
experiment: MB-102 pig plasma concentration after subcutaneous dosing; assay type: in vivo; conditions: Yorkshire, pig, plasma, subcutaneous, 3.2 mg/kg, pig 09802, SubQ, 3.2 mpk, 315 min; read-out: MB-102 Pig Plasma Conc.
Endpoint name: concentration at 315 min (ng/mL)
Your answer is read as ng/mL, so omit the unit and give the number.

Read off the recorded concentration at 315 min for Nc1nc(C(=O)N[C@H](CO)C(=O)O)c(N)nc1C(=O)N[C@H](CO)C(=O)O [MB-102] 1180

----------
test: MB-102 pig plasma concentration after subcutaneous dosing; assay type: in vivo; settings: Yorkshire, pig, plasma, subcutaneous, 3.2 mg/kg, pig 53701, SubQ, 3.2 mpk, 255 min; read-out: MB-102 Pig Plasma Conc.
Endpoint name: concentration at 255 min (ng/mL)
Your answer is read as ng/mL, so omit the unit and give the number.

Read off the recorded concentration at 255 min for `Nc1nc(C(=O)N[C@H](CO)C(=O)O)c(N)nc1C(=O)N[C@H](CO)C(=O)O` 1350

----------
test: MB-102 pig plasma concentration after IV dosing; type: in vivo; conditions: Yorkshire, plasma, 3.2 mg/kg; pig 48019, IV, 3.2 mpk, 255 min; read-out: MB-102 Pig Plasma Conc.
Endpoint name: concentration at 255 min
State the value with its unit after it.

Read off the recorded concentration at 255 min for Nc1nc(C(=O)N[C@H](CO)C(=O)O)c(N)nc1C(=O)N[C@H](CO)C(=O)O [MB-102] 1400 ng/mL

----------
assay: MB-102 pig plasma concentration after subcutaneous dosing; format: in vivo; conditions: Yorkshire, pig, plasma, subcutaneous, 3.2 mg/kg, pig 09802, SubQ, 3.2 mpk, 150 min; read-out: MB-102 Pig Plasma Conc.
Endpoint name: concentration at 150 min (ng/mL)
Your answer is read as ng/mL, so omit the unit and give the number.

Read off the recorded concentration at 150 min for `Nc1nc(C(=O)N[C@H](CO)C(=O)O)c(N)nc1C(=O)N[C@H](CO)C(=O)O` 3710
